tested on: OVCAR-3 ovarian; experiment: NCI-60 one-dose screen, 48 h; settings: 10 µM unless noted
The panel holds about 83,000 compounds, 20% with a hit somewhere; the sample as a whole holds those more often. Activity calls are given as the source filed them. Rule for the calls: active = growth percent below 10; inactive = the rest.
Would you mind answering with one of these outcomes? YES for active, NO for inactive

Query :: Tell me the recorded outcome of this test for O=C(NNc1nc2cc(F)c(F)cc2n2cccc12)c1ccncn1 .
Result :: NO

Query :: What do you get for CCN1C(=O)N(CC)C2SC(N/N=C/C=C/c3ccccc3OC)=NC21 (stereo not drawn) ?
Result :: YES

Query :: What do you get for CC[C@@](C)(NC(=O)C(C)(C)NC(=O)[C@@H](NC(=O)[C@@H]1CCCN1C(=O)C(C)(C)NC(=O)[C@H](CC(C)C)NC(=O)CNC(=O)C(C)(C)NC(=O)[C@@H](NC(=O)C(C)(C)NC(=O)[C@H](CCC(N)=O)NC(=O)[C@H](C)NC(=O)C(C)(C)NC(=O)[C@H](C)NC(=O)C(C)(C)NC(=O)[C@@H]1CCCN1C(=O)C(C)(C)NC(C)=O)C(C)C)C(C)C)C(=O)N[C@@H](CCC(N)=O)C(=O)N[C@@H](CCC(N)=O)C(=O)N[C@H](CO)Cc1ccccc1 ?
Result :: NO
